# Assayed system: T1, His-tagged ECD of mouse 4-1BB (mouse, UniProt P20334 24-187)
# T1 construct: also called murine 4-1BB; mu4-1BB; not shown: His tag
# T1 sequence: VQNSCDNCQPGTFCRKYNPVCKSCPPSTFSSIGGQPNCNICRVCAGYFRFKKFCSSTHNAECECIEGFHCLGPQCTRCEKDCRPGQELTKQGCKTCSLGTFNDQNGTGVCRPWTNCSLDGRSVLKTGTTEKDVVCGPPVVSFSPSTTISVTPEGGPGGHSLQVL
# Protocol notes: SPR (Biacore), captured antibody, His-tagged ECD analyte
Field: kon. Provide a value for each of the binders that follow.
// note: answer is a bare numeric in M⁻¹ s⁻¹

*Q* Requested field: kon. Item: hu107-3-hIgG4 (antibody, V domains shown, Human IgG4 constant region with the S228P mutation; also called hu107.1x.1y) VH: EVQLVQSGAEVKKPGSSVKVSCKASDYTFNDYWVSWVRQAPGQGLEWIGEIYPNSGATNFNGKFRGRATLTVDNSASTAYMELSSLRSEDTAVYYCTREYTRDWFAYWGQGTLVTVSS VL: DVQLTQSPSSLSASVGDRVTITCRSSQSLLDSDGNTYLYWFQQKPGKAPKRLIYLVSNLGSGVPSRFSGSGSGTDFTLTISSLQPEDFATYYCMQPTHAPYTFGQGTKVEIK
*A* 320000

*Q* Request: hu106-7-hIgG4 (antibody, V domains shown, Human IgG4 constant region with the S228P mutation; also called hu106.1y.3x) VH: EVQLVESGGGLVQPGGSLRLSCAASGYTFTSYYIYWVRQAPGKGLEWIGNIWPGNGGTFYGEKFMGRATFSADTSKNTAYLQMNSLRAEDTAVYYCARRPDYSGDDYFDYWGQGTLVTVSS VL: SVELTQPPSVSVSPGQTARITCKLNSGNIGSYYVHWYQQKPGQAPVTMIYRDDKRPDGIPERFSGSSDSSSNSAFLTISGVQAEDEADYYCHSYDSTITPVFGGGTKLTVL
*A* 2.2e+06

*Q* Request: hu107-1-hIgG4 (antibody, V domains shown, Human IgG4 constant region with the S228P mutation; also called hu107.1x.1x) VH: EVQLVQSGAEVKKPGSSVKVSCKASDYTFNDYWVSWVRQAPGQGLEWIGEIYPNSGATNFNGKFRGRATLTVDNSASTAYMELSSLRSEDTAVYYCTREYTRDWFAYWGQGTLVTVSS VL: DVVLTQSPLSLPVTLGQPASISCRSSQSLLDSDGNTYLYWFQQRPGQSPRRLIYLVSNLGSGVPDRFSGSGSGTDFTLKISRVEAEDVGVYYCMQPTHAPYTFGQGTKLEIK
*A* 330000

*Q* Request: hu106-4-hIgG4 (antibody, V domains shown, Human IgG4 constant region with the S228P mutation; also called hu106.1x.3x) VH: EVQLVQSGAEVKKPGSSVKVSCKASGYTFTSYYIYWVRQAPGQGLEWIGNIWPGNGGTFYGEKFMGRATFTADTSTSTAYMELSSLRSEDTAVYYCARRPDYSGDDYFDYWGQGTLVTVSS VL: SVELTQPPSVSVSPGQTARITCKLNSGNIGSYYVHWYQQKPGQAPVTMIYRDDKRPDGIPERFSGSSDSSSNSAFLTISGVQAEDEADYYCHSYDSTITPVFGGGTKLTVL
*A* 1.6e+06

Values were extracted from patent US20190194329A1.
